# Tested on: Streptococcus pneumoniae
# procedure-details: Antibacterial activity against erythromycin-susceptible Streptococcus pneumoniae ATCC 49619 by broth microdilution method
# Assay type: functional
reported-endpoint: log10 of MIC (log10 of the value in µg/mL)
Quick note: numbers are log10 of MIC, with µg/mL as the unit.

Query for Streptococcus pneumoniae: what log10 of MIC does the record show for CC[C@H]1OC(=O)[C@H](C)C(=O)[C@H](C)[C@@H](O[C@@H]2O[C@H](C)C[C@H](N(C)C)[C@H]2O)[C@@](C)(OC)C[C@@H](C)C(=O)[C@H](C)[C@H]2N(CCCSc3nccs3)C(=O)O[C@]12C ? -1.51

Query for Streptococcus pneumoniae: what log10 of MIC does the record show for CC[C@H]1OC(=O)[C@H](C)C(=O)[C@H](C)[C@@H](O[C@@H]2O[C@H](C)C[C@H](N(C)C)[C@H]2O)[C@@](C)(OC)C[C@@H](C)C(=O)[C@H](C)[C@H]2N(CCCSc3nccc(C)n3)C(=O)O[C@]12C ? -1.21

Query for Streptococcus pneumoniae: what log10 of MIC does the record show for CC[C@H]1OC(=O)[C@H](C)C(=O)[C@H](C)[C@@H](O[C@@H]2O[C@H](C)C[C@H](N(C)C)[C@H]2O)[C@@](C)(OC)C[C@@H](C)C(=O)[C@H](C)[C@H]2N(CCCSc3nnnn3-c3ccccc3)C(=O)O[C@]12C ? -0.90

Query for Streptococcus pneumoniae: what log10 of MIC does the record show for CC[C@H]1OC(=O)[C@H](C)C(=O)[C@H](C)[C@@H](O[C@@H]2O[C@H](C)C[C@H](N(C)C)[C@H]2O)[C@](C)(OC)C[C@@H](C)C(=O)[C@H](C)[C@H]2N(CCCCn3cnc(-c4cccnc4)c3)C(=O)O[C@]12C ? -1.51

Query for Streptococcus pneumoniae: what log10 of MIC does the record show for CC[C@H]1OC(=O)[C@H](C)C(=O)[C@H](C)[C@@H](O[C@@H]2O[C@H](C)C[C@H](N(C)C)[C@H]2O)[C@@](C)(OC)C[C@@H](C)C(=O)[C@H](C)[C@H]2N(CCCSc3nc(-c4ccccc4)cs3)C(=O)O[C@]12C ? -0.60

Query for Streptococcus pneumoniae: what log10 of MIC does the record show for CC[C@H]1OC(=O)[C@H](C)C(=O)[C@H](C)[C@@H](O[C@@H]2O[C@H](C)C[C@H](N(C)C)[C@H]2O)[C@@](C)(OC)C[C@@H](C)C(=O)[C@H](C)[C@H]2N(CCCSc3nc4cc(OC)ccc4s3)C(=O)O[C@]12C ? -0.90

Query for Streptococcus pneumoniae: what log10 of MIC does the record show for CC[C@H]1OC(=O)[C@H](C)C(=O)[C@H](C)[C@@H](O[C@@H]2O[C@H](C)C[C@H](N(C)C)[C@H]2O)[C@@](C)(OC)C[C@@H](C)C(=O)[C@H](C)[C@H]2N(CCCSc3nnnn3C)C(=O)O[C@]12C ? -1.51

Query for Streptococcus pneumoniae: what log10 of MIC does the record show for CC[C@H]1OC(=O)[C@H](C)[C@@H](O[C@H]2C[C@@](C)(OC)[C@@H](O)[C@H](C)O2)[C@H](C)[C@@H](O[C@@H]2O[C@H](C)C[C@H](N(C)C)[C@H]2O)[C@](C)(OC)C[C@@H](C)C(=O)[C@H](C)[C@@H](O)[C@]1(C)O ? -1.51

Query for Streptococcus pneumoniae: what log10 of MIC does the record show for CC[C@H]1OC(=O)[C@H](C)C(=O)[C@H](C)[C@@H](O[C@@H]2O[C@H](C)C[C@H](N(C)C)[C@H]2O)[C@@](C)(OC)C[C@@H](C)C(=O)[C@H](C)[C@H]2N(CCCSc3nc(-c4ccccc4)c(-c4ccccc4)o3)C(=O)O[C@]12C ? 0.00
